assay: Antitumor effect on mouse model subcutaneously transplanted with G719A mutant EGFR-expressing cell line; conditions: nude, mouse, in vivo, po
METRIC NAME: MTD at 14 days (mg/kg/day)
Form entry: value (mg/kg/day) — number only.

Entry under review: C=CC(=O)N[C@H]1C=C(C)c2c(-c3cnc4ccccc4c3)c3c(N)ncnc3n2C1 . Reported MTD at 14 days?
200

====

molecular target: human EGFR L861Q (Homo sapiens, UniProt P00533, L861Q); assay: Intracellular EGFR phosphorylation in mutant EGFR forced expression system using HEK293 cells; details: HEK293 cells expressing human EGFR L861Q, 6 hours; read-out: IC50, phosphorylated EGFR inhibition, L861Q
Sequence (P00533 25-1210 L861Q): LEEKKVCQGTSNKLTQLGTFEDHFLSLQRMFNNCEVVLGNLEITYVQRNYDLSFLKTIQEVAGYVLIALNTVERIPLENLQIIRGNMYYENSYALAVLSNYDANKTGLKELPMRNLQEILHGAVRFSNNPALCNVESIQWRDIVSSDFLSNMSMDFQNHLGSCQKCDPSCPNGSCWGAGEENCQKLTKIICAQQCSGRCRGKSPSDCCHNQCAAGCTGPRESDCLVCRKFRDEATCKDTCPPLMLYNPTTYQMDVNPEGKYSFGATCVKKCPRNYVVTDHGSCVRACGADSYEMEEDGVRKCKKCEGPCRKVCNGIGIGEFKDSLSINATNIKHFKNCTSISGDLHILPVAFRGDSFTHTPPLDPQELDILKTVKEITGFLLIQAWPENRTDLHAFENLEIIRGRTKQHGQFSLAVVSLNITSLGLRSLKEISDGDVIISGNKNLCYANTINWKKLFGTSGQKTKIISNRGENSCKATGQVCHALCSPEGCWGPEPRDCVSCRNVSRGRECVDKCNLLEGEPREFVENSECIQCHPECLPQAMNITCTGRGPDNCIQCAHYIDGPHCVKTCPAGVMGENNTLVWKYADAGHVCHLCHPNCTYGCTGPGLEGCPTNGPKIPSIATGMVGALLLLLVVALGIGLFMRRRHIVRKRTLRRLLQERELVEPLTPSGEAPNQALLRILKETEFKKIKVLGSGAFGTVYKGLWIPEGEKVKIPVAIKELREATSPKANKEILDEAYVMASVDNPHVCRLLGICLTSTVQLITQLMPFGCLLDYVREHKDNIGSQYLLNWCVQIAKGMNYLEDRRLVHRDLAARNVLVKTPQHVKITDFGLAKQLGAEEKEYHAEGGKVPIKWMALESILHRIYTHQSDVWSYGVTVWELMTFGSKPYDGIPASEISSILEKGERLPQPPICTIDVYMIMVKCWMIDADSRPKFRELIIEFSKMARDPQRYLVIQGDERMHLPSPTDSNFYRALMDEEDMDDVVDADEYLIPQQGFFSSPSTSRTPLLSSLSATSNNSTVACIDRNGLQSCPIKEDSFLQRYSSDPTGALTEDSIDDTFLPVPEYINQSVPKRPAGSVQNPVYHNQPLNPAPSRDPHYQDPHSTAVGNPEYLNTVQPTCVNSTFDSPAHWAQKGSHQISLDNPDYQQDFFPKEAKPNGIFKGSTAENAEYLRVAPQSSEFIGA
METRIC NAME: IC50 (µM)
Form entry: value (µM) — number only.

GET /values?readout=IC50&system=human EGFR L861Q (Homo sapiens, UniProt P00533, L861Q)&item= C=CC(=O)N[C@H]1C=C(C)c2c(-c3cnc4ccccc4c3)c3c(N)ncnc3n2C1 [Compound A]
40.5

Origin of the recorded values: patent US11701359B2
